System: PC-12
assay_text: Neurotrophic activity in rat PC-12 cells assessed as neurite outgrowth promoting activity in NGF-induced cells by measuring differentiation rate at 10 […] (reference value: 4.24 +/- 0.03 %)
Assay type: functional
Set-up: concentration or dose not given beside the values
assay_metric: Activity
Form entry: enter the amount, then its unit.

Activity in this record for "C[C@@H]1CC[C@@]2(O)[C@]13C[C@@]1(OC(=O)Cc4ccc(F)cc4)OC(OC[C@@]2(C)[C@@]1(C)O)[C@@H]3O" : 5.74%

Activity in this record for "C/C=C/C=C/C(=O)O[C@]12C[C@]34[C@H](C)CC[C@]3(O)[C@@](C)(COC(O1)[C@@H]4O)[C@@]2(C)O" : 11.74%

Activity in this record for "C[C@@H]1CC[C@@]2(O)[C@]13C[C@@]1(OC(=O)/C=C/c4ccccc4)OC(OC[C@@]2(C)[C@@]1(C)O)[C@@H]3O" : 5.03%

Activity in this record for "C[C@@H]1CC[C@@]2(O)[C@]13C[C@@]1(OC(=O)CCc4ccc(F)cc4)OC(OC[C@@]2(C)[C@@]1(C)O)[C@@H]3O" : 10.41%

Activity in this record for "C[C@@H]1CC[C@@]2(O)[C@]13C[C@@]1(O)OC(OC[C@@]2(C)[C@@]1(C)O)[C@@H]3O" : 5.75%

Activity in this record for "C[C@@H]1CC[C@@]2(O)[C@]13C[C@@]1(OC(=O)CCC(=O)c4ccccc4)OC(OC[C@@]2(C)[C@@]1(C)O)[C@@H]3O" : 5.69%

Activity in this record for "C[C@@H]1CC=C2[C@]13C[C@@]1(O)OC(OC[C@@]2(C)[C@@]1(C)O)[C@@H]3OC(=O)CCC(=O)c1ccccc1" : 7.21%

Activity in this record for "C[C@@H]1CC[C@@]2(O)[C@]13C[C@@]1(OC(=O)CCc4ccc(Br)cc4)OC(OC[C@@]2(C)[C@@]1(C)O)[C@@H]3O" : 6.15%

Activity in this record for "C[C@@H]1CC=C2[C@]13C[C@@]1(O)OC(OC[C@@]2(C)[C@@]1(C)O)[C@@H]3OC(=O)CCc1cccc(Cl)c1" : 5.6%

Activity in this record for "C[C@@H]1CC[C@@]2(O)[C@]13C[C@@]1(OC(=O)CCc4ccc(Cl)cc4)OC(OC[C@@]2(C)[C@@]1(C)O)[C@@H]3O" : 5.87%

Activity in this record for "C[C@@H]1CC=C2[C@]13C[C@@]1(O)OC(OC[C@@]2(C)[C@@]1(C)O)[C@@H]3OC(=O)CCc1ccc(F)cc1" : 5.43%

Activity in this record for "C[C@@H]1CC[C@@]2(O)[C@]13C[C@@]1(OC(=O)Cc4ccc(Cl)cc4)OC(OC[C@@]2(C)[C@@]1(C)O)[C@@H]3O" : 4.9%

Activity in this record for "C[C@@H]1CC=C2[C@]13C[C@@]1(O)OC(OC[C@@]2(C)[C@@]1(C)O)[C@@H]3OC(=O)CCc1cccc(F)c1" : 4.97%

Activity in this record for "C[C@@H]1CC=C2[C@]13C[C@@]1(O)OC(OC[C@@]2(C)[C@@]1(C)O)[C@@H]3O" : 5.31%

Activity in this record for "C[C@@H]1CC[C@@]2(O)[C@]13C[C@@]1(OC(=O)CCc4cccc(F)c4)OC(OC[C@@]2(C)[C@@]1(C)O)[C@@H]3O" : 6.35%
